Test system: KM12 colon
Assay: NCI-60 one-dose screen, 48 h
Conditions: 10 µM unless noted
This is part of a sample that, as a whole, favours compounds with a hit. Of some 83,000 tested, about 20% had one in any assay. Calls of active or inactive are those of the source. Rule for the calls: active = growth percent below 10; inactive = the rest.
Possible outcomes: label 1 for active, label 0 for inactive

| molecule | category |
| --- | --- |
| O=[N+]([O-])c1cc([N+](=O)[O-])c(NN=C(c2ccc(O)cc2)c2ccc(O)cc2)cc1Cl | label 1 |
| CC(C)=CCC[C@](C)(O)[C@H]1CC[C@]2(C)[C@@H]1CC[C@@H]1[C@@]3(C)CC[C@H](OC(=O)CCC(=O)O)C(C)(C)[C@@H]3CC[C@]12C | label 1 |
| CC(C)(C)c1cc(C(=O)Nc2ccc(C(=O)NCCN)cc2)cc(C(C)(C)C)c1 | label 0 |
| COc1ccc2c(c1)c(-c1noc(C(=O)c3cn(C)c4ncc(Br)cc34)n1)cn2C | label 0 |
| Cc1cnc([C@]23CC[C@@H](C)[C@H](C)[C@H]2C2=CC[C@@H]4[C@@]5(C)Cc6c([nH]c7ccccc67)C(C)(C)[C@@H]5CC[C@@]4(C)[C@]2(C)CC3)o1 | label 0 |
| O=C1COCCN1c1ccc(NCc2cn(Cc3cccc4ccccc34)c3ccccc23)cc1 | label 0 |
| CCOC(=O)c1cnc2ccc(Br)cc2c1Nc1cccc(S(N)(=O)=O)c1 | label 0 |
| Cc1ccc(-c2cc(O)c(-c3ccc(C)cc3C)cc2O)c(C)c1 | label 0 |
| O=C1COCCN1c1ccc(NCc2cn(Cc3ccc(F)cc3)c3ccccc23)cc1 | label 0 |
| C=C(C)C1CCC2(C(=O)O)CCC3(C)C(CCC4C5(C)CCC(OC(=O)NCc6ccccc6)C(C)(C)C5CCC43C)C12 (centres undefined) | label 0 |
| CC1=CC[C@@H]2C(C)(C)C(=O)CC[C@@]2(C)[C@@H]1COc1ccc2ccc(=O)oc2c1 | label 0 |
| O=C(O)c1cccc(CN2CCN(c3cc4c(cc3F)c(=O)c(C(=O)O)cn4C3CC3)CC2)c1O | label 0 |
| Nc1nnc(CSc2nnc3n(Cc4ccccc4)c(=O)c4c5c(sc4n23)CCCC5)s1 | label 0 |
| O=[N+]([O-])c1cc(CCl)ccc1OCCBr | label 0 |
| Cc1cccc(C[C@H](NC(=O)Nc2ccc(Cl)cc2F)C(=O)N[C@@H]2C(=O)N3C[C@H](O)C[C@H]3C(=O)N3CCCC[C@H]3C(=O)N[C@@H](C)C(=O)N3C[C@H](C)C[C@H]3C(=O)O[C@H]2C)c1 | label 1 |
| C=C(C)[C@@H]1CC[C@]2(C(=O)NCCNCCNCCN)CC[C@]3(C)[C@H](CC[C@@H]4[C@@]5(C)CC[C@H](O)C(C)(C)[C@@H]5CC[C@]43C)[C@@H]12 | label 1 |
| COc1ccc(NC(=S)NNc2ccc(-c3ccc(OC)c(OC)c3)nn2)cc1 | label 0 |
| Cn1cc(-c2noc(-c3cn(C)c4ncc(F)cc34)n2)c2ccccc21 | label 0 |
| Cn1cc(-c2nnc(-c3ccccc3)s2)c2cc(Br)cnc21 | label 0 |
| C=C(C)[C@@H]1CC[C@]2(C(=O)NCCNCCNCCN)CC[C@]3(C)[C@H](CC[C@@H]4[C@@]5(C)CCC(=O)C(C)(C)[C@@H]5CC[C@]43C)[C@@H]12 | label 1 |
| CCOc1cccc2c(NC(C)CCCN(CC)CC)c(C)cnc12 (centres undefined) | label 0 |
| Cc1ccc(NCCN2CCCCC2)c2c(=O)c3ccccc3sc12 | label 0 |
| Cc1ccc2c(c1)C(C)Cc1c(Cl)ncnc1N2C (centres undefined) | label 1 |
| O=C(Nc1cccc(F)c1)c1cc(=O)[nH]c2cc(Br)ccc12 | label 0 |
| COc1ccc(C2CC(c3cc(OC)c(OC)c(OC)c3)=NN2C(C)=O)cc1OCC(=O)Nc1nc2ccc(C(F)(F)F)cc2s1 (centres undefined) | label 0 |
| O=S(=O)(NCc1ccccc1)c1ncnc2nc[nH]c12 | label 0 |
| CC1(C)CC[C@]2(C(N)=O)CC[C@]3(C)C(=CC[C@@H]4[C@@]5(C)C/C(=C/c6ccncc6)C(=O)C(C)(C)[C@@H]5CC[C@]43C)[C@@H]2C1 | label 1 |
| Cc1cc(-c2ccc(N=Nc3c(S(=O)(=O)O)cc4cc(S(=O)(=O)O)cc(N)c4c3O)c(C)c2)ccc1N=Nc1cc(S(=O)(=O)O)c2ccccc2c1O | label 0 |
| CNC(=O)c1cc(Oc2cccc3nc(NC(=O)Nc4cc(C(F)(F)F)cc(C(F)(F)F)c4)ccc23)ccn1 | label 0 |
| O=C(CCCSc1nc(-c2ccccc2)cc(-c2ccccc2)n1)NO | label 0 |
| Nc1cc(NN=C(c2ccc(O)cc2)c2ccc(O)cc2)c([N+](=O)[O-])cc1[N+](=O)[O-] | label 0 |
| CC1=CCc2ccccc21 | label 0 |
| C[C@@H]1C[C@H]2C(=O)O[C@@H](C)[C@H](NC(=O)[C@H](Cc3cc(F)cc(F)c3)NC(=O)Nc3ccc(C4CC4)cc3F)C(=O)N3CCC[C@H]3C(=O)N3CCCC[C@H]3C(=O)N[C@@H](C)C(=O)N2C1 | label 0 |
| COc1ccc(CC(C#N)c2ccc(Cl)cc2)cc1 (centres undefined) | label 0 |

----------
System: A498 renal
Experiment: NCI-60 one-dose screen, 48 h
Details: 10 µM unless noted
About 83,000 compounds went through this panel and 20% of them were active in at least one assay; those are over-represented in the sample as a whole. The source made the active and inactive calls. How the source made its calls: active means growth percent below 10; inactive means the rest.
Possible outcomes: active, inactive

| compound | category |
| --- | --- |
| CC(=O)OC[C@]12CC[C@@H]([C@@H](C)C(N)=O)[C@@H]1[C@H]1CC[C@@H]3[C@@]4(C)CC[C@H](OC(C)=O)C(C)(C)[C@@H]4CC[C@@]3(C)[C@]1(C)CC2 | active |
| C=C(C)[C@@H]1CC[C@]2(C)[C@H](CC=C3[C@@H]4[C@@H](C)[C@H](C)CC[C@]4(C(N)=O)CC[C@]32C)[C@@]1(C)CCC#N | active |
| Oc1cc(Nc2ccnc3cc(Cl)ccc23)c2ncccc2c1 | inactive |
| O=C1Cc2c(sc3c(F)cccc23)C(c2ccccc2[N+](=O)[O-])N1 (centres undefined) | inactive |
| COc1ccc(-c2nc3ccccn3c2/C=C/C(=O)c2cc(OC)c(OC)c(OC)c2)cc1OC | active |
| Nc1ccc(Cl)c([N+](=O)[O-])c1 | inactive |
| COc1ccc(-c2cc(-c3ccccc3)nc(SCCCCCC(=O)NO)n2)cc1 | inactive |
| COc1ccc(NC(=S)NNc2ccc(-c3ccc(OC)c(OC)c3)nn2)cc1 | inactive |
| COC(=O)[C@@H](NC(=O)NC(=O)NC(=O)CI)C(C)C | inactive |
| Oc1c(CNCCNCc2cc(Cl)cc(Cc3ccccc3)c2O)cc(Cl)cc1Cc1ccccc1 | inactive |
| CCNc1cc2c(cc1Br)-c1ccccc1C2=O | inactive |
| Cn1cc(-c2nnc(-c3ccccc3)s2)c2cc(Br)cnc21 | inactive |
| Fc1cc2[nH]ncc2c2c3c(c(-c4cn[nH]c4)nc12)CCCC3 | active |
| CCN(CC)c1ccc2cc(C(Nc3ccc(Br)c(C(F)(F)F)c3)c3nnnn3C(C)(C)C)c(=O)oc2c1 (centres undefined) | inactive |
| COc1cc2c(c(OC)c1OC)-c1ccc(NNC(N)=S)c(=O)cc1[C@@H](NC(C)=O)CC2 | inactive |
| O=C1CC(c2ccccc2)Cc2nc3ccc(Br)cc3cc21 (centres undefined) | active |
| NS(=O)(=O)c1ccc(CCN2C(=O)/C(=C\c3ccccc3)C=C2c2ccc(Cl)cc2)cc1 | inactive |
| Cc1nc(Cl)c2c(n1)N(C)c1ccc(Cl)cc1C(C)C2 (centres undefined) | inactive |
| C=C(C)[C@@H]1CC[C@]2(c3ncc(C)o3)CC[C@]3(C)[C@H](CC[C@@H]4[C@@](C)(CCC#N)[C@H](C(=C)C)CC[C@]43C)[C@@H]12 | active |

----------
Measured growth values are reported for all entries that follow.
System: IGROV1 ovarian
Assay: NCI-60 one-dose screen, 48 h (100 = growth as untreated, 0 = no growth, -100 = all killed)
Settings: 10 µM unless noted
This is part of a sample that, as a whole, favours compounds with a hit. Of some 83,000 tested, about 20% had one in any assay. Calls of active or inactive are those of the source. The calls were made as follows: active = growth percent below 10; inactive = the rest.
measured_metric: growth

| smiles_text | measured_metric | recorded_value |
| --- | --- | --- |
| O=C(N=c1n(-c2ccccc2)nc2n1CCN2C1=NCCN1)c1ccc(Cl)cc1 | growth | 58% (inactive) |
| CC(C)(C)c1cc(C(=O)N2CCC(C(=O)NCCN)CC2)cc(C(C)(C)C)c1 | growth | 95.6% (inactive) |
| O=c1cc(-c2ccccc2)oc2cc(OCc3cn(Cc4ccc(F)cc4)nn3)cc(O)c12 | growth | 31.2% [100 µM] (inactive) |
| Cn1cc(-c2noc(-c3cn(C)c4ncc(F)cc34)n2)c2cc(Cl)ccc21 | growth | 51.7% (inactive) |
| COc1ccc(/C=C(/C2=NCCN2)n2ccc3ccccc32)cc1 | growth | 82.8% (inactive) |
